test-target: V₂ receptor (Rattus norvegicus, UniProt Q00788)
Construct: Using rat kidney plasma membrane preparations
Sequence (Q00788 whole entry): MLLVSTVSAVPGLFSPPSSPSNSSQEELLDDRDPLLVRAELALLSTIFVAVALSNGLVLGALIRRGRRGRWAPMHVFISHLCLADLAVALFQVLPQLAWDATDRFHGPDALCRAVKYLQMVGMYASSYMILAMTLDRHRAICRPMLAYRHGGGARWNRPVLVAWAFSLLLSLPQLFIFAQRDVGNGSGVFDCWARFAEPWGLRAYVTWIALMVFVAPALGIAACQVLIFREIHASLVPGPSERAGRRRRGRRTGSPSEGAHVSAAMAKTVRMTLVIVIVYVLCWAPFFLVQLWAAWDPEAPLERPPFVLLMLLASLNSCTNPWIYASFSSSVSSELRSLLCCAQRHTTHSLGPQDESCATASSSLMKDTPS
procedure-details: V₂ receptor binding assay ([³H]-Arg-vasopressin, rat kidney plasma membrane preparations)
applied-conditions: 4°C for 3 hours
pIC50: −log10 of the molar value.

>  <molecule>
CC(=O)NCCCCOc1ccccc1C(=O)Nc1ccc(C(=O)N2CCCCc3ccccc32)cc1

>  <test-target>
V₂ receptor (Rattus norvegicus, UniProt Q00788)

>  <pIC50>
6.80

$$$$
>  <molecule>
CN(C)C1CCCN(C(=O)c2ccc(NC(=O)c3ccccc3Cl)c(OC(=O)c3ccccc3Cl)c2)c2ccccc21 (stereo not shown)

>  <test-target>
V₂ receptor (Rattus norvegicus, UniProt Q00788)

>  <pIC50>
7.06

$$$$
>  <molecule>
COC1CCCN(C(=O)c2ccc(NC(=O)c3ccccc3C)cc2)c2ccccc21 (stereo not shown)

>  <test-target>
V₂ receptor (Rattus norvegicus, UniProt Q00788)

>  <pIC50>
8.05

$$$$
>  <molecule>
O=C(CNc1ccccc1Cl)Nc1ccc(C(=O)N2CCCCc3ccccc32)cc1

>  <test-target>
V₂ receptor (Rattus norvegicus, UniProt Q00788)

>  <pIC50>
7.41

$$$$
>  <molecule>
CC1Cc2ccccc2N(C(=O)c2ccc(NC(=O)c3cc(Cl)cc(Cl)c3)cc2)C1 (stereo not shown)

>  <test-target>
V₂ receptor (Rattus norvegicus, UniProt Q00788)

>  <pIC50>
7.20

$$$$
>  <molecule>
Cc1ccccc1C(=O)Nc1ccc(C(=O)N2CCCC(OCC(=O)N3CCS(=O)(=O)CC3)c3ccccc32)cc1 (stereo not shown)

>  <test-target>
V₂ receptor (Rattus norvegicus, UniProt Q00788)

>  <pIC50>
7.72

$$$$
>  <molecule>
C=CCN(C)C1CCCN(C(=O)c2ccc(NC(=O)c3ccccc3C)cc2Cl)c2ccccc21 (stereo not shown)

>  <test-target>
V₂ receptor (Rattus norvegicus, UniProt Q00788)

>  <pIC50>
7.09

$$$$
>  <molecule>
CC(=O)NC1Cc2ccccc2N(C(=O)c2ccc(NC(=O)c3cc(Cl)cc(Cl)c3)cc2)C1 (stereo not shown)

>  <test-target>
V₂ receptor (Rattus norvegicus, UniProt Q00788)

>  <pIC50>
5.80

$$$$
>  <molecule>
NC(=O)COC1CCCN(C(=O)c2ccc(NC(=O)c3ccccc3Cl)cc2)c2ccccc21 (stereo not shown)

>  <test-target>
V₂ receptor (Rattus norvegicus, UniProt Q00788)

>  <pIC50>
8.00

$$$$
>  <molecule>
CN1CCN(CCCCCCOc2ccccc2C(=O)Nc2ccc(C(=O)N3CCCCc4ccccc43)cc2)CC1

>  <test-target>
V₂ receptor (Rattus norvegicus, UniProt Q00788)

>  <pIC50>
6.52

$$$$
>  <molecule>
CC(C)(C)CC(=O)Nc1ccc(C(=O)N2CCCc3ccccc32)cc1

>  <test-target>
V₂ receptor (Rattus norvegicus, UniProt Q00788)

>  <pIC50>
5.98

$$$$
>  <molecule>
O=C(Nc1ccc(C(=O)N2CCCCc3ccccc32)cc1)c1cc(Cl)cc(Cl)c1

>  <test-target>
V₂ receptor (Rattus norvegicus, UniProt Q00788)

>  <pIC50>
7.80

$$$$
>  <molecule>
Cc1ccccc1C(=O)Nc1ccc(C(=O)N2CCCC(NC(=O)CN)c3ccccc32)cc1 (stereo not shown)

>  <test-target>
V₂ receptor (Rattus norvegicus, UniProt Q00788)

>  <pIC50>
6.66

$$$$
>  <molecule>
CCOc1cccc(C(=O)Nc2ccc(C(=O)N3CCCCc4ccccc43)cc2)c1

>  <test-target>
V₂ receptor (Rattus norvegicus, UniProt Q00788)

>  <pIC50>
6.62

$$$$
>  <molecule>
Cc1ccccc1C(=O)Nc1ccc(C(=O)N2CCCC(OCC(=O)N3CCSCC3)c3ccccc32)cc1 (stereo not shown)

>  <test-target>
V₂ receptor (Rattus norvegicus, UniProt Q00788)

>  <pIC50>
8.10

$$$$
>  <molecule>
Cc1ccccc1C(=O)Nc1ccc(C(=O)N2CCCC(O)c3ccccc32)c(Cl)c1 (stereo not shown)

>  <test-target>
V₂ receptor (Rattus norvegicus, UniProt Q00788)

>  <pIC50>
8.40

$$$$
